Entry source: ChEMBL document CHEMBL3885861

Organism: Rattus norvegicus
ASSAY NAME: Open TG-GATES - Regimen: Single
Type: toxicity, organism-based, Sprague-Dawley
Parameters: regimen Single, gender Male, age 6 weeks
CONDITIONS: in vivo, po, 0 mg/kg, 24 h, tissue Plasma, route gavage, dose level Control
Give TP for every item shown.
Value expressed in g/dL; do not type the unit.

Q) What does the record list as TP for C=C(C)[C@H]1Cc2c(ccc3c2O[C@@H]2COc4cc(OC)c(OC)cc4[C@@H]2C3=O)O1 [ROTENONE] ?
A) 5.5

Q) Thanks! And Cn1cc[nH]c1=S [METHIMAZOLE] ?
A) 5.6

Q) Thanks! And OCCN1CCN(CCCN2c3ccccc3Sc3ccc(C(F)(F)F)cc32)CC1 [FLUPHENAZINE] ?
A) 5.8

Q) Thanks! And O=[N+]([O-])c1ccc(O)c([N+](=O)[O-])c1 [2,4-DINITROPHENOL] ?
A) 5.5

Q) Thanks! And C[C@H]1O[C@H](O[C@H]2[C@H](O)[C@@H](O)[C@@H](O[C@H]3[C@H](O)[C@@H](O)C(O)O[C@@H]3CO)O[C@@H]2CO)[C@H](O)[C@@H](O)[C@@H]1N[C@H]1C=C(CO)[C@@H](O)[C@H](O)[C@H]1O (some centres undefined) [ACARBOSE] ?
A) 5.3

Q) Thanks! And Cc1cccc(C)c1OCC(C)N (centres undefined) [MEXILETINE] ?
A) 5.6

Q) Thanks! And C[C@H]1C(=O)O[C@@H]2CCN3CC=C(COC(=O)[C@](C)(O)[C@]1(C)O)[C@H]23 [MONOCROTALINE] ?
A) 5.6

Q) Thanks! And Cc1ccc2cc3c(ccc4ccccc43)c3c2c1CC3 [3-METHYLCHOLANTHRENE] ?
A) 5.5

Q) Thanks! And CCOC(=O)C(C)(C)Oc1ccc(Cl)cc1 [CLOFIBRATE] ?
A) 5.5

* * *

Give RBC for every item shown.
Organism: Rattus norvegicus
ASSAY NAME: Open TG-GATES - Regimen: Single
Assay type: toxicity, organism-based, Sprague-Dawley
Design: regimen Single, gender Male, age 6 weeks
CONDITIONS: in vivo, po, 0 mg/kg, 24 h, tissue Blood, route gavage, dose level Control
Value expressed in x10_4/ul; do not type the unit.

Q) What does the record list as RBC for O=[N+]([O-])c1ccc(O)c([N+](=O)[O-])c1 ?
A) 600

Q) Thanks! And C=C(C)[C@H]1Cc2c(ccc3c2O[C@@H]2COc4cc(OC)c(OC)cc4[C@@H]2C3=O)O1 ?
A) 582.6

Q) Thanks! And CCOC(=O)C(C)(C)Oc1ccc(Cl)cc1 [CLOFIBRATE] ?
A) 659.8

Q) Thanks! And OCCN1CCN(CCCN2c3ccccc3Sc3ccc(C(F)(F)F)cc32)CC1 ?
A) 574.6

Q) Thanks! And C[C@H]1C(=O)O[C@@H]2CCN3CC=C(COC(=O)[C@](C)(O)[C@]1(C)O)[C@H]23 ?
A) 620.4

Q) Thanks! And Cc1cccc(C)c1OCC(C)N (centres undefined) ?
A) 632.6

Q) Thanks! And C[C@H]1O[C@H](O[C@H]2[C@H](O)[C@@H](O)[C@@H](O[C@H]3[C@H](O)[C@@H](O)C(O)O[C@@H]3CO)O[C@@H]2CO)[C@H](O)[C@@H](O)[C@@H]1N[C@H]1C=C(CO)[C@@H](O)[C@H](O)[C@H]1O (some centres undefined) ?
A) 636.6

Q) Thanks! And Cc1ccc2cc3c(ccc4ccccc43)c3c2c1CC3 ?
A) 612.8

Q) Thanks! And Cn1cc[nH]c1=S ?
A) 621.4
